assay: Solubility of the compound; type: physicochemical

{"compound": "C/C(=C\\COc1ccc2ccc(=O)oc2c1)C1=C(CN2CCCC2C(=O)O)C(=O)C(C)(C)O1 (mixture of isomers)", "solubility (mg/mL)": 0.245}

---

test system: RAW264.7; assay: Cytotoxicity against mouse RAW264.7 cells after 24 hrs by ATPLite assay; type: cell-based; details: RAW264.7, 24 h
pEC50: −log10 of the molar value.
testReadout: pEC50

{"compound": "C/C(=C\\COc1ccc2ccc(=O)oc2c1)C1=C(CN2CCCC2C(=O)O)C(=O)C(C)(C)O1 (mixture of isomers)", "tgt": "RAW264.7", "observed": 4.13}
